system: RAW 264.7 cells; experiment: Nitric oxide suppression assay (IFNγ-induced NO production); format: cell-based, mouse; conditions: average of ratios from replicate experiments; benchmark RTA 402
Label Yes when NO IC50 Relative to RTA 402 (fold) (Mean ± SD) is at or above 2 fold; anything below gets No.

- CC1(C)CC[C@]2(c3nc(CO)no3)CC[C@]3(C)[C@H](C(=O)C=C4[C@@]5(C)C=C(C#N)C(=O)C(C)(C)[C@@H]5CC[C@]43C)[C@@H]2C1: No
- C[C@@H]1C(=O)C(C#N)=C[C@]2(C)C3=CC(=O)[C@@H]4[C@@H]5CC(C)(C)CC[C@]5(c5nc(C(F)(F)F)no5)CC[C@@]4(C)[C@]3(C)CC[C@@H]12: Yes
- CC1(C)CC[C@]2(c3nc(CF)no3)CC[C@]3(C)[C@H](C(=O)C=C4[C@@]5(C)C=C(C#N)C(=O)C(C)(C)[C@@H]5CC[C@]43C)[C@@H]2C1: No
- CC1(C)CC[C@]2(c3nc(C(F)F)no3)CC[C@]3(C)[C@H](C(=O)C=C4[C@@]5(C)C=C(C#N)C(=O)C(C)(C)[C@@H]5CC[C@]43C)[C@@H]2C1: No
- CC(=O)OCCn1nnc([C@]23CCC(C)(C)C[C@H]2[C@H]2C(=O)C=C4[C@@]5(C)C=C(C#N)C(=O)C(C)(C)[C@@H]5CC[C@@]4(C)[C@]2(C)CC3)n1: No
